Below are compounds with their Ki as measured on Trace amine-associated receptor 1 (Mus musculus, UniProt Q923Y8).
Sequence (Q923Y8 whole entry): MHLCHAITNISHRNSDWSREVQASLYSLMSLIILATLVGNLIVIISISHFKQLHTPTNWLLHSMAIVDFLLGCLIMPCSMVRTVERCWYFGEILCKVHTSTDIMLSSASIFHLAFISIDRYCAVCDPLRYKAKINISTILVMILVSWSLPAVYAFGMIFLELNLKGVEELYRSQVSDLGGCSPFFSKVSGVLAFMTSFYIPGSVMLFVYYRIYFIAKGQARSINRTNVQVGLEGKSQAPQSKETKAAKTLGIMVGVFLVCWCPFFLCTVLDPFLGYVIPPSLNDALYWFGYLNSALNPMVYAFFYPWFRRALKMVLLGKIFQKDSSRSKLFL

# Smiles Notation, Ki (nM)
measured = [
    ("Cc1cc(Nc2ccc3c(c2)CCN2CCNC[C@@H]32)nc(OCC(F)(F)F)n1", 41),
    ("O=C(Nc1ccc2c(c1)CCN1CCNC[C@@H]21)c1cnc(C(F)(F)F)nc1", 189),
    ("Brc1ccc2c(c1)CCN1CCNC[C@@H]21", 180),
]
